assay: folding enthalpy; higher = less favourable; fluorescence melt of hairpins on a sequencing array, two-state fit; details: sodium 0.088 M
Short version: folding enthalpy at least -30 kcal/mol is 1, less is -1.

[[record]]
biopolymer_sequence = "GTTGGCGGAAACGCTGAC ((..(((....)))..))"
group = 1

[[record]]
biopolymer_sequence = "GGAGACGAAAGTCAATCC ((((((....)))..)))"
group = 1

[[record]]
biopolymer_sequence = "GCACCGCGAAAGCAGAGC ((.(.((....)).).))"
group = 1

[[record]]
biopolymer_sequence = "GGGGACGAAAGTCTCCC ((((((....))).)))"
group = 1

[[record]]
biopolymer_sequence = "GTACCGAAAGGTAC (((((....)))))"
group = 1

[[record]]
biopolymer_sequence = "GTCCTCGAAAGAGGCGAC ((((((....)))..)))"
group = 1

[[record]]
biopolymer_sequence = "GATCAAACTCTTGATC ((((((....))))))"
group = -1

[[record]]
biopolymer_sequence = "GGTCAAGAAATTGACC ((((((....))))))"
group = -1

[[record]]
biopolymer_sequence = "GAAAGCGAAAGCTCCTTC ((((((....)))..)))"
group = 1

[[record]]
biopolymer_sequence = "GATCTGCTACCAGATC ((((((....))))))"
group = -1

[[record]]
biopolymer_sequence = "GCCGCGCGAAAGCACAGC ((.(.((....)).).))"
group = 1

[[record]]
biopolymer_sequence = "GTGTGTGGAAACACACAC (((((((....)))))))"
group = -1

[[record]]
biopolymer_sequence = "GTAGTAGGAAACTACTAC (((((((....)))))))"
group = -1

[[record]]
biopolymer_sequence = "GCGAACGCGAAAGCGCGC (((..(((....))))))"
group = 1

[[record]]
biopolymer_sequence = "GGCACCCGAAAGGGAGCC (((.(((....))).)))"
group = -1

[[record]]
biopolymer_sequence = "GATCTTTCTAAAGATC ((((((....))))))"
group = -1

[[record]]
biopolymer_sequence = "GGGTACGGAAACGTGTCC ((..(((....)))..))"
group = 1

[[record]]
biopolymer_sequence = "GATTCCCGAAAGGGCATC (((.(((....))).)))"
group = 1

[[record]]
biopolymer_sequence = "GATCCGGACACGGATC ((((((....))))))"
group = -1

[[record]]
biopolymer_sequence = "GAAGTAGGAAACTACTCC (.(((((....))))).)"
group = 1

[[record]]
biopolymer_sequence = "GCGGCGCCCCGC ((((....))))"
group = 1

[[record]]
biopolymer_sequence = "GATCTCCCTAGAGATC ((((((....))))))"
group = -1

[[record]]
biopolymer_sequence = "GTTGCAGGAAACTGCAGC (.(((((....))))).)"
group = 1


---

test: folding enthalpy; higher = less favourable; fluorescence melt of hairpins on a sequencing array, two-state fit; details: sodium 0.088 M
Property name: folding enthalpy (kcal/mol)

[[record]]
biopolymer_sequence = "GGGATGCGAAAGCACCCC (((.(((....))).)))"
measured_result = -27.7

[[record]]
biopolymer_sequence = "GGACGACGAAAGTCCTCC (((.(((....))).)))"
measured_result = -19.4

[[record]]
biopolymer_sequence = "GATCATCGAGATGATC ((((((....))))))"
measured_result = -45.2

[[record]]
biopolymer_sequence = "GTTGGTGGAAACGCTAAC (((.(.(....).).)))"
measured_result = -14

[[record]]
biopolymer_sequence = "GACTACCGAAAGGTCGTC (((.(((....))).)))"
measured_result = -39.4

[[record]]
biopolymer_sequence = "GCGGATGCCCGC ((((....))))"
measured_result = -14.4


---

assay: melting temperature; fluorescence melt of hairpins on a sequencing array, two-state fit, raised by 9.35 °C to match UV melts; conditions: sodium 0.088 M
Labelling field: enter true if recorded Tm is less than 50 °C. Enter false if it equals or exceeds that cut-off.

[[record]]
biopolymer_sequence = "GATCGTGTTAACGATC ((((((....))))))"
group = "false"

[[record]]
biopolymer_sequence = "GGTTGCGAAAGCACTACC ((((((....)))..)))"
group = "true"

[[record]]
biopolymer_sequence = "CGGTAACGGAAACGTCCG (((..(((....))))))"
group = "true"

[[record]]
biopolymer_sequence = "GCTGTAGCGAAAGCTAGC (((..(((....))))))"
group = "true"

[[record]]
biopolymer_sequence = "GATCTAAACCTAGATC ((((((....))))))"
group = "true"

[[record]]
biopolymer_sequence = "GCGCCGCGAAAGCCCCGC (((..((....))..)))"
group = "true"

[[record]]
biopolymer_sequence = "GCGGAACCGAAAGGTCGC (((..(((....))))))"
group = "false"

[[record]]
biopolymer_sequence = "GTAGTACGAAAGTAGTAC (((.(((....))).)))"
group = "true"

[[record]]
biopolymer_sequence = "GATCGACGAAAGTCTATC (((.(((....))).)))"
group = "true"

[[record]]
biopolymer_sequence = "GACCCCGGAAACGGGACC (..((((....))))..)"
group = "true"

[[record]]
biopolymer_sequence = "GATCCATTTTTGGATC ((((((....))))))"
group = "false"

[[record]]
biopolymer_sequence = "GGTCGCGAAAGCGAGACC ((((((....)))..)))"
group = "false"

[[record]]
biopolymer_sequence = "GCACGTGGAAACACGCAC (..((((....))))..)"
group = "true"

[[record]]
biopolymer_sequence = "GCTTGGGAAACCAAGC ((((((....))))))"
group = "false"

[[record]]
biopolymer_sequence = "GCGTGCGAAAGCACCGC ((((((....))).)))"
group = "false"

[[record]]
biopolymer_sequence = "GATCGATGAGTCGATC ((((((....))))))"
group = "false"

[[record]]
biopolymer_sequence = "GCACCTCGAAAGAGTGC (((.(((....))))))"
group = "false"

[[record]]
biopolymer_sequence = "GGGAAGGGAAACCCTCCC ((((.((....)).))))"
group = "true"

[[record]]
biopolymer_sequence = "GCGTCTAAACGC ((((....))))"
group = "false"

[[record]]
biopolymer_sequence = "CGCACGGAAACGTTAGCG ((((((....)))..)))"
group = "true"

[[record]]
biopolymer_sequence = "GATCAAATCTTTGATC ((((((....))))))"
group = "true"

[[record]]
biopolymer_sequence = "GCATGCGAAAGCAGCTGC ((((((....)))..)))"
group = "false"

[[record]]
biopolymer_sequence = "GGGACTCGAAAGAGCCCC (((.(((....))).)))"
group = "false"

[[record]]
biopolymer_sequence = "GGCATTCGAAAGAAGGCC (((.(((....))).)))"
group = "false"

[[record]]
biopolymer_sequence = "GGACTTCCGAAAGGATCC (((..(((....))))))"
group = "true"

[[record]]
biopolymer_sequence = "GATCACACAGGTGATC ((((((....))))))"
group = "false"

[[record]]
biopolymer_sequence = "GCGGCACCCGC ((((...))))"
group = "false"

[[record]]
biopolymer_sequence = "ATAGGGAAACCTAT (((((....)))))"
group = "true"

[[record]]
biopolymer_sequence = "GGGGACGGAAACATCCCC (((((.(....).)))))"
group = "true"

[[record]]
biopolymer_sequence = "GGGCTAGGAAACTAGTCC ((.((((....)))).))"
group = "false"

[[record]]
biopolymer_sequence = "GTATTCGGAAACGAGTAC (((.(((....))).)))"
group = "true"

[[record]]
biopolymer_sequence = "GTGAAAGCGAAAGCTCAC (((..(((....))))))"
group = "true"

[[record]]
biopolymer_sequence = "GAGGAACGAAAGTTACTC (((.(((....))).)))"
group = "false"

[[record]]
biopolymer_sequence = "GCTTAGCGAAAGCGTAGC (((..((....))..)))"
group = "false"

[[record]]
biopolymer_sequence = "GGTGTCGAAAGACACACC ((((((....)))..)))"
group = "false"

[[record]]
biopolymer_sequence = "GTGGCTACGAAAGTACAC (((..(((....))))))"
group = "true"

[[record]]
biopolymer_sequence = "GCTTACGAAAGTAAAAGC ((((((....)))..)))"
group = "true"

[[record]]
biopolymer_sequence = "GGATCCGAAAGGACTTCC ((((((....)))..)))"
group = "true"

[[record]]
biopolymer_sequence = "GCCAAGCGAAAGCCAGGC (((..((....))..)))"
group = "false"

[[record]]
biopolymer_sequence = "CGGCTCGGAAACGACCCG (((.(((....))).)))"
group = "true"

[[record]]
biopolymer_sequence = "GATCCGCGAAAGCGATC (((.(((....))))))"
group = "true"

[[record]]
biopolymer_sequence = "GATCGAGTGATCGATC ((((((....))))))"
group = "false"


Hello, the source for this data is the array DNA melting data of Ke et al. (doi:10.1101/2024.01.08.574731), in case you need it.
